studySystem: T1, synthetic murine cCrk N-terminal SH3 domain (residues 134-191) (murine, UniProt Q64010 134-191)
T1 construct: Made by total chemical synthesis and folded in HEPES/NaCl buffer; also called cCrk(134-191); c-Crk SH3
T1 sequence (Q64010 134-191 limits assumed): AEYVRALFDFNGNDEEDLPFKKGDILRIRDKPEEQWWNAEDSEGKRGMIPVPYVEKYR
assay: in solution; method not stated in the legend
Protocol: The resulting synthetic protein domain was then assayed for its affinity for two different proline-rich peptides. […] This change in solvent exposure leads to an increase in the fluorescence intensity of the tryptophan sidechain which can be monitored as a function of increasing ligand concentration (Feng et al. *Science* 1994.266, 1241–1245). 1994, 3, 1261–1266. […]
No end group written: not given here.
assayEndpoint: pKd
Reminder that pKd is minus the log10 of a molar concentration.

## Input Endpoint output: pKd of PPPALPPKKR-NH2 (also called C3G peptide) [C3G-derived peptide PPPALPPKKR.amide] . Value?
## Output 5.64
